The measured values listed here are drawn from the Human Domainome abundance scans (Beltran et al. 2025).

B1: Far upstream element-binding protein 1, residues 98 to 169; numbered along this chain, Q96AE4 (parent)
chain: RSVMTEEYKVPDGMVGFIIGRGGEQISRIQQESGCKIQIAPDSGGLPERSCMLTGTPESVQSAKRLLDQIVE

Variants of: B1
Assay: abundance fitness (aPCA) (normalised: wild type 0, dead -1); higher = more abundant; growth selection in yeast, the domain comes from the species named
Details: Homo sapiens
Documented abundance fitness across a set of variants

// solved cases for abundance fitness follow
{"monomer.sequence": "RSVMTEEYKVPDGMVGFIIGRGGEQISRIQQESGCKIQIAPDSGGLPERLCMLTGTPESVQSAKRLLDQIVE", "abundance fitness": -0.002}
{"monomer.sequence": "RSVMTEEYKVPDGMVGFIIGRGGEQISRIQQESGCKIQNAPDSGGLPERSCMLTGTPESVQSAKRLLDQIVE", "abundance fitness": -0.415}
{"monomer.sequence": "RSVMTEEYKVPDGWVGFIIGRGGEQISRIQQESGCKIQIAPDSGGLPERSCMLTGTPESVQSAKRLLDQIVE", "abundance fitness": -0.093}
{"monomer.sequence": "RSVMTEEYKVPDGMVGFIIGRGGEQISRVQQESGCKIQIAPDSGGLPERSCMLTGTPESVQSAKRLLDQIVE", "abundance fitness": -0.031}
{"monomer.sequence": "RSVMTEEYKVPDGMVGFIIGRGGEQISRIQQESGCKRQIAPDSGGLPERSCMLTGTPESVQSAKRLLDQIVE", "abundance fitness": -1.05}

Query abundance fitness for `RSVMTEEYKVPDGMVGFIIGRGGEQISRIQQESGCKIQIAPDSGGLPERSCMLTGTPHSVQSAKRLLDQIVE`
-0.052

Query abundance fitness for `RSVMTEEYKVPDGMVGFIIGRGGEQISRIQQESGCKIQIAPDSGGLPERSCMLTGTPESVQSAHRLLDQIVE`
-0.136

Query abundance fitness for `RSVMTEEYKVPDGMVGFDIGRGGEQISRIQQESGCKIQIAPDSGGLPERSCMLTGTPESVQSAKRLLDQIVE`
-0.175

Query abundance fitness for `RSVMTEEYKVPDGMVGFIIGRGGEQISRIQQESGCKIQIAPDSGGLPERICMLTGTPESVQSAKRLLDQIVE`
0.07

Query abundance fitness for `RSVMTEEYKVPDGMVGFIIGRGGEQISRIQQESGCKIQIAPDSGGLPERSCMLTGTPESVQSAPRLLDQIVE`
-0.781
